tested on: biotinyl-Trp-oxazolone; test: self-aminoacylation, catalytic enhancement (BWO) (fold over background); higher = more active; k-Seq, kA / k0A0; sequences stand for … in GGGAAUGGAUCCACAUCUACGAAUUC…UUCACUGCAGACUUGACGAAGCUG
Variants at the floor of the assay were thinned out.
Listed below: self-aminoacylation values for each entry.
Lab note: jot down the number only; don't add units.

For orientation, consider the following solved cases.
>>> endpoint_result("AUUCGCCUAGGUAAUCGGGUG [Fam2.2 aminoacylation ribozyme variant]")
2.77
>>> endpoint_result("AACUUUGCUGAUAGUCGCAAG [Fam3.1 aminoacylation ribozyme variant]")
3.67
>>> endpoint_result("CCACACUUCGAGCCAUCGGUC [Fam1B.1 aminoacylation ribozyme variant]")
1.02
>>> endpoint_result("CCACACUUGAAGCUAUCGGUC [Fam1B.1 aminoacylation ribozyme variant]")
0.759
>>> endpoint_result("AUUACCCUGAUCAUCGAGUGU [Fam2.1 aminoacylation ribozyme variant]")
5.04
>>> endpoint_result("AAGUUUGCUAAUAGUACCAAG [Fam3.1 aminoacylation ribozyme variant]")
0.838
>>> endpoint_result("AAGUUUGAUAAUAGUCACAAG [Fam3.1 aminoacylation ribozyme variant]")
0.877
>>> endpoint_result("CUACUUCAUAAAAUCGGUCUG [Fam1A.1 aminoacylation ribozyme variant]")
0.389

Then this sequence:
// query Query (sequence): AUUACCCUGGGCAACGAGUGA [Fam2.1 aminoacylation ribozyme variant] ; field requested: self-aminoacylation
// result 10.3
